Tested on: R275C
assay.procedure: BK channel mutant inhibitors and activators – cell-based, U2OS BacMam, thallium flux, beta subunits, selectivity assay, profiling panel (AID 1259406);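 note: initial slope of Thallos dye fluorescence rise after thallium is added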
conditions.used: U2OS BacMam BK variants, at 30 µM
Active and inactive are the calls of the source.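 Rule for the calls: active = thallium flux through the channel raised or lowered by more than 3 SD from vehicle-only wells, actives on both sides; inactive = the rest.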
Outcome codes: True for active, False for inactive

>>> class_name("COc1ccc(CN2CCN(C(c3ccc(F)cc3)c3ccc(F)cc3)CC2)c(OC)c1OC")
"False"
>>> class_name("Cc1ccc(NC(=O)c2ccc(CN3CCN(C)CC3)cc2)cc1Nc1nccc(-c2cccnc2)n1")
"False"
>>> class_name("Cc1ncc([N+](=O)[O-])n1CC(O)CCl (centres undefined)")
"False"
>>> class_name("CCCN1CCCC[C@H]1C(=O)Nc1c(C)cccc1C")
"False"
>>> class_name("CN(C)CC[C@@H](c1ccc(Br)cc1)c1ccccn1")
"False"
>>> class_name("CC(C)(C)NC(=O)[C@H]1CC[C@H]2[C@@H]3CC[C@H]4NC(=O)C=C[C@]4(C)[C@H]3CC[C@]12C")
"False"
>>> class_name("CC(C)c1ccc2oc3nc(N)c(C(=O)O)cc3c(=O)c2c1")
"False"
>>> class_name("CN1CCN(C2=Nc3cc(F)ccc3Cc3ccccc32)CC1")
"False"
>>> class_name("CC(=O)O[C@H]1C[C@@H]2CC[C@@H]3[C@H](CC[C@@]4(C)[C@H]3C[C@H]([N+]3(C)CCCCC3)[C@@H]4OC(C)=O)[C@@]2(C)C[C@@H]1N1CCCCC1")
"True"
